- test target: T1, MPP7, Q5T2T1
- T1 sequence (Q5T2T1 134-230, limits assumed, looked up): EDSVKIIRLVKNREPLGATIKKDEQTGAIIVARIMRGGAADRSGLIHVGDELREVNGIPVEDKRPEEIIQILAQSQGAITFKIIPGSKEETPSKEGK
- measurement notes: holdup assay
- Parameters: key: below the threshold = too weak to quantify, mostly under pKd 3.1 to 4
- reported conditions: plain residues with an end cap or a label only (N-terminal biotin on a linker: ado-ado)
experimental endpoint: pKd

WAKEKQHTRL [SLC17A1, Q14916]    below the threshold
KEKASTETEC [TRPM1, Q7Z4N2]    below the threshold
KLQNPNQSVV [TYRP1, P17643]    below the threshold
ELKAEDEVQI [DCHS2, Q6V1P9]    4
